# assaySystem: human soluble ENPP1 (Homo sapiens, UniProt P22413)
# Construct: 20 ng of human soluble ENPP1
# Sequence (P22413 103-925 limits assumed): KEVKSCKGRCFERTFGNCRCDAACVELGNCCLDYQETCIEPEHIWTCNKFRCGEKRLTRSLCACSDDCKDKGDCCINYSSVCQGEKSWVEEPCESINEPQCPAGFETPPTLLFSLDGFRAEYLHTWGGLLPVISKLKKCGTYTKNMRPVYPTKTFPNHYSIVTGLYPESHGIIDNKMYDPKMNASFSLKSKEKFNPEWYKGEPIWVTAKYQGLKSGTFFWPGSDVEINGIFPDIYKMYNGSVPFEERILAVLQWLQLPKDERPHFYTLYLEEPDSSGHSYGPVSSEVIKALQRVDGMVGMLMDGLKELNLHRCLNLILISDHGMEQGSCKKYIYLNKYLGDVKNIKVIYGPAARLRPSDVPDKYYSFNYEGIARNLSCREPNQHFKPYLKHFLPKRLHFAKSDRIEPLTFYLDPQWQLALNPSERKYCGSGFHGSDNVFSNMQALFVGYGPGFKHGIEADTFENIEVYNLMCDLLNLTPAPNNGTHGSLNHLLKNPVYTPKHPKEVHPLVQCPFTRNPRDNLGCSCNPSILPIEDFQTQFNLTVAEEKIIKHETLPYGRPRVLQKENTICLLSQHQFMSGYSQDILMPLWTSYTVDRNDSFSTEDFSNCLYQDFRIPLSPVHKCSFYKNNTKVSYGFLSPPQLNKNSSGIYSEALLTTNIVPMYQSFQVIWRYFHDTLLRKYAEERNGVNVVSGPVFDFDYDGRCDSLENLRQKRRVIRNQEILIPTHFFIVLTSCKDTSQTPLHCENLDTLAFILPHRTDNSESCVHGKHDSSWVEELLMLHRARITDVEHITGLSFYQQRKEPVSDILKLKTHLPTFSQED
# assayDetails: ENPP1 activity assay using p-Nitrophenyl-5′-TMP as a substrate
# Type: biochemical
# Protocol: ENPP1 is a transmembrane glycoprotein that hydrolyzes nucleotides and nucleotide derivatives with the formation of nucleotide-5′-monophosphates. […] The percent inhibition at each compound is calculated as follows: % inhibition=(ODMAX−ODCOMPOUND)/(ODMAX−ODMIN)*100. […] The IC50 values for percent inhibition versus compound concentration were determined by fitting the inhibition curves using a four-parameter variable slope model in GraphPad Prism® 8.
pIC50: −log10 of the molar value.
property: pIC50

- COc1ccc2c(ncc3nc(C)n(Cc4cc(F)c(P(=O)(O)O)cc4F)c32)n1 [Compound 125]: 8.14
- COc1ccc2c(ncc3[nH]c(=O)n([C@H](C)c4ccc(S(N)(=O)=O)cc4)c32)n1 [Compound 101]: 9.17
- COc1ccc2c(ncc3[nH]c(=O)n(Cc4c(F)cc(NS(N)(=O)=O)cc4F)c32)n1 [Compound 138]: 7.42
- COc1ccc2c(ncc3[nH]c(=O)n(Cc4c(F)cc(P(=O)(O)O)cc4F)c32)n1 [Compound 124]: 7.72
- COc1cc2ncc3ncn(Cc4ccc(S(N)(=O)=O)cn4)c3c2cc1OC [Compound 12]: 8.92
- COc1ccc2c(n1)nc(C)c1ncn(Cc3ccc(S(N)(=O)=O)cn3)c12 [Compound 87]: 8.89
- COc1ccc2c(ncc3[nH]c(=O)n(Cc4c(F)cc(S(N)(=O)=O)cc4F)c32)n1 [Compound 103]: 10.05
- COc1ccc2c(ncc3ncn(Cc4ccc(S(N)(=O)=O)nc4)c32)n1 [Compound 41]: 9.68

---

# assaySystem: ENPP-1, HEK293 cells (Homo sapiens)
# Construct: ENPP-1 were mainly expressed on the surface of cell membrane; endogenous in cells; host or cells: HEK293
# Sequence (P22413 whole entry): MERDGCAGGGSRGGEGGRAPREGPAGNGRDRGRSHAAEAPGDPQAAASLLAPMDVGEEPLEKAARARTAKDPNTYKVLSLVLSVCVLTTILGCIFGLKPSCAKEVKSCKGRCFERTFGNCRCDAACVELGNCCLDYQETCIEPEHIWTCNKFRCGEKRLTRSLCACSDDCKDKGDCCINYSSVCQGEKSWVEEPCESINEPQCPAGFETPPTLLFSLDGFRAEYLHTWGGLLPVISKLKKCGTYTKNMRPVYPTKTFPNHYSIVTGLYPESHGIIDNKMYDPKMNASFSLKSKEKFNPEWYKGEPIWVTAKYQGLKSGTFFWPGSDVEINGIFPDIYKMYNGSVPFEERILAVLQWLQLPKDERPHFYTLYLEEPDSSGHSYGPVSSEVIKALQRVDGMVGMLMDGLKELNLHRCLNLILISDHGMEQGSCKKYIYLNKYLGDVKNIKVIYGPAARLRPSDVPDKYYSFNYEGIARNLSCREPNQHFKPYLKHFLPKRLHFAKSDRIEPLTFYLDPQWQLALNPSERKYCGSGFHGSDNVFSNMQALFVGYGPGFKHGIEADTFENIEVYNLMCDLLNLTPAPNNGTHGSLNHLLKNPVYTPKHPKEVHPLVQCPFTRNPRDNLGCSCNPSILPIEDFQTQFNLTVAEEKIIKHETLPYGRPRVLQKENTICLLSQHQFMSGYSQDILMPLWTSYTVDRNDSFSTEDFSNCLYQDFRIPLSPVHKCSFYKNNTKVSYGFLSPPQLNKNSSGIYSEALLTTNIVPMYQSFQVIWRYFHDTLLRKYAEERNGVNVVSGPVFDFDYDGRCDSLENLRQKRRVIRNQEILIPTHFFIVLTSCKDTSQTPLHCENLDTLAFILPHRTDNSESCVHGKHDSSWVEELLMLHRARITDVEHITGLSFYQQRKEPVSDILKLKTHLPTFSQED
# assayDetails: Cellular enzymatic assay of ENPP-1 inhibitors using TMP-pNP as substrate, HEK 293 cells
# Type: cell-based
# recordedConditions: HEK293, read-out: Inhibition (at 20 μM)
Here, each record is paired with measured inhibition at 20 µM data.
property: inhibition at 20 µM (%)

- COc1ccc2c(ncc3ncn(Cc4ccc(NS(N)(=O)=O)cc4)c32)n1 [Compound 46]: 85
- COc1ccc2c(ncc3ncn(Cc4ccc(S(N)(=O)=O)cn4)c32)n1 [Compound 40]: 96
- COc1ccc2c(c1)ncc1[nH]c(=O)n(Cc3ccc(S(N)(=O)=O)cc3)c12 [Compound 35]: 51
- COc1ccc2ncc3ncn(Cc4ccc(S(N)(=O)=O)cc4)c3c2c1 [Compound 36]: 57
- COc1cc2ncc3[nH]c(=O)n(Cc4ccc(S(N)(=O)=O)cc4)c3c2cc1OC [Compound 1]: 19

---

# assayDetails: Pharmacokinetics in mice
# Type: in vivo
# recordedConditions: mouse, plasma; male CD-1 mice; 1 mg/kg, iv
# Protocol: A dosing solution of test sample was prepared at 1.0 mg/mL in 5% DMSO/40% PEG400/55% water and administered to male CD-1 mice (4-6 weeks old, 20-30 grams, 3 animals each group) via intravenous (IV) bolus at 1 mg/kg and by oral gavage (PO) at 5 mg/kg. […] The resultant plasma samples were analyzed using LC/MS/MS to determine concentrations of test sample. […]
Note to self: values exactly at 300 ng·h/mL are y. So AUC at or above 300 ng·h/mL is y, below is n.

- COc1ccc2c(ncc3c2n(Cc2c(F)cc(S(N)(=O)=O)cc2F)c(=O)n3C)n1: y
- COc1ccc2c(n1)nc(C)c1nc(C)n(Cc3ccc(S(N)(=O)=O)cn3)c12: y
- COc1cc2ncc3ncn(Cc4ccc(S(N)(=O)=O)cn4)c3c2cc1OC: n
- COc1ccc2c(ncc3nc(C4CC4)n(Cc4ccc(S(N)(=O)=O)cn4)c32)n1: n
- COc1ccc2c(ncc3nnn(Cc4ccc(S(N)(=O)=O)c(F)c4)c32)n1: n
- COc1ccc2c(ncc3[nH]c(=O)n(Cc4ccc(S(N)(=O)=O)cc4)c32)n1: y
- COc1ccc2c(ncc3nc(C)n(Cc4cc(F)c(S(N)(=O)=O)cc4F)c32)n1: y
- COc1ccc2c(ncc3ncn(Cc4ccc(S(N)(=O)=O)nc4)c32)n1: n
- COc1ccc2c(ncc3nc(C)n(Cc4ccc(S(N)(=O)=O)c(F)c4)c32)n1: n
- COc1ccc2c(ncc3nc(C)n(Cc4ccc(S(N)(=O)=O)cc4)c32)n1: n
- COc1ccc2c(ncc3ncn(Cc4ccc(S(N)(=O)=O)cn4)c32)n1: n
- COc1ccc2c(ncc3nc(CC#N)n(Cc4ccc(S(N)(=O)=O)c(F)c4)c32)n1: n
- COc1ccc2c(ncc3ncn(Cc4ccc(S(N)(=O)=O)cc4F)c32)n1: n
- COc1ccc2c(ncc3nc(CN4CCOCC4)n(Cc4ccc(S(N)(=O)=O)c(F)c4)c32)n1: n
- COc1ccc2c(ncc3ncn([C@H](C)c4ccc(S(N)(=O)=O)cn4)c32)n1: n
- COc1ccc2c(ncc3[nH]c(=O)n(Cc4ccc(S(N)(=O)=O)cc4F)c32)n1: y
